- System: L1210 leukemia ip in BDF1 mice, survival T/C
- RUN_DESCRIPTION: NCI In Vivo Anticancer Drug Screen. Data for tumor model L1210 Leukemia (intraperitoneal) in B6D2F1 (BDF1) mice
- CONDITION_SET: endpoint: mean survival time; dose: 400.0 mg/kg/injection; schedule: Q04DX003 (ip); vehicle: saline; higher = longer survival
Inconclusive results and toxic doses are left out.
MEASUREMENT_KIND: T/C

GET /value?item= CCN(CC)CCN(C)C &field=T/C returns 97 % of control

Quick note, T/C for CCNc1nc(C(F)(F)F)nc2[nH]ncc12 landed at 97 % of control

Note to self: T/C recorded for O=C1C=CN(C2OC(CO)C(O)C2O)C(=O)C1 (configuration not stated) was 116 % of control

Please fill in: T/C reported for CCN(CC)C(=S)S = 103 % of control

###

- Tested on: L1210 leukemia ip in BDF1 mice, survival T/C
- RUN_DESCRIPTION: NCI In Vivo Anticancer Drug Screen. Data for tumor model L1210 Leukemia (intraperitoneal) in B6D2F1 (BDF1) mice
- CONDITION_SET: endpoint: mean survival time; dose: 50.0 mg/kg/injection; schedule: Q01DX001 (ip); vehicle: carboxymethylcellulose (CMC); higher = longer survival
Toxic doses and inconclusive results are not listed.
MEASUREMENT_KIND: T/C

Record excerpt, results attached:
| COMPOUND | T/C |
| --- | --- |
| CCOC(=O)c1ccc(N(CCC(O)CN=[N+]=[N-])S(=O)(=O)c2ccc(C)cc2)cc1 (stereo not drawn) | 96 % of control |
| CC12CCC(C(=O)C1=O)C2(C)C (stereo not drawn) | 121 % of control |

The compound listed as Cc1cc(N(CCCl)CCCl)ccc1C=NCCCCN=Cc1ccc(N(CCCl)CCCl)cc1C has a reported T/C of 104 % of control

The value of T/C measured for the compound O=C1C2=C(C(=O)c3ccccc31)C1C=CC2CC1 turned out to be 111 % of control

Sure, the documented T/C for CC1CN1P1(=O)OCC(C)([N+](=O)[O-])CO1 (stereo not drawn) is 106 % of control

The value of T/C measured for the compound Oc1ccc(Cl)cc1/C=N\NC(=S)Nc1ccc2cn[nH]c2c1 turned out to be 102 % of control

What the record says about O=C(OC1COC(Br)C(OC(=O)c2ccccc2)C1OC(=O)c1ccccc1)c1ccccc1 (stereo not drawn) : T/C is 90 % of control

###

- Tested on: L1210 leukemia ip in BDF1 mice, survival T/C
- RUN_DESCRIPTION: NCI In Vivo Anticancer Drug Screen. Data for tumor model L1210 Leukemia (intraperitoneal) in B6D2F1 (BDF1) mice
- CONDITION_SET: endpoint: mean survival time; dose: 200.0 mg/kg/injection; schedule: Q01DX001 (ip); vehicle: carboxymethylcellulose (CMC)
Inconclusive results and toxic doses are left out. No stated cut-off is given here; in the data, active means T/C of 150% or more; inactive means T/C below 125%.
Hello, when you answer, please use one of the following outcomes: active, inactive

| COMPOUND | GROUP_LABEL |
| --- | --- |
| Nc1ccccc1C1OCCO1 | inactive |
| CC1CN1P1(=O)OCC(C)([N+](=O)[O-])CO1 (stereo unspecified) | inactive |
| NC(=S)N/N=C/c1ccc([N+](=O)[O-])s1 (tested in a mixture with another compound) | inactive |
| O=C(CCl)N(O)c1ccc(/C=C/c2ccccc2)cc1 | inactive |
| CC12CCC(C(=O)C1=O)C2(C)C (stereo unspecified) | inactive |

Q: For this compound, state the assay outcome: COC(=O)/C=C\C=C\C(=O)OC
Result: inactive

Q: Given Cc1cc(N(CCCl)CCCl)ccc1C=NCCCCN=Cc1ccc(N(CCCl)CCCl)cc1C , state the outcome it received in this test.
Result: inactive

Q: What was the test verdict on Nc1nc(=S)c2ncn(C3OC(CO)CC3O)c2[nH]1 (stereo unspecified) ?
Result: active

Q: Test call for this compound, please: COc1cc(CC(=O)O)c([N+](=O)[O-])cc1OC
Result: inactive

Q: Lab log entry: CSc1ccc(OC(=O)Oc2ccc(SC)cc2)cc1 — outcome as called in the assay?
Result: inactive

Q: Field: outcome | Entry: Cc1cn(C2OC(CO)C(O)C2O)c(=O)[nH]c1=O (stereo unspecified)
Result: inactive

Q: Hi, sorry to bother you, what did the test record for CS(=O)(=O)OCCCCO ?
Result: inactive

Q: Can you look up the reported call for CC(C)(CO)NCc1ccc(O)cc1 for me?
Result: inactive

Q: Could you please tell me the result logged for CCOC(=O)C(C)N(c1ccccc1)S(=O)(=O)c1ccc(C)cc1 (stereo unspecified) in this assay?
Result: inactive

Q: Call for entry CC(NP1(=O)OCC(C)([N+](=O)[O-])CO1)c1ccccc1 (stereo unspecified) :
Result: inactive

Q: Given CC(=O)c1ccc(S(=O)(=O)c2ccccc2)cc1 , state the outcome it received in this test.
Result: inactive

Q: Dear colleague, could you share the recorded outcome for CC1(C)C2CCC1(CS(=O)(=O)Cl)C(=O)C2 (stereo unspecified) when you have a moment?
Result: inactive

Q: Please state the recorded outcome for this compound: Cc1nc(N)[nH]c(=O)c1CCCNS(=O)(=O)c1ccc(C(=O)CBr)cc1
Result: inactive

Q: Look up the recorded call for C=CCN(c1ccccc1)P(=O)(N1CC1)N1CC1 in this test.
Result: inactive

Q: Recorded call for Cc1[nH]c2ccccc2c1/C=C/c1c[nH]c2ccccc12 ?
Result: inactive

Q: Hello, I am checking results. What call was entered for Cn1c(=O)c2ncn(CC3CCCCC3)c2n(C)c1=O ?
Result: inactive

Q: State the result this test recorded for O=C(O)c1cccc([N+](=O)[O-])c1O .
Result: inactive

Q: Field: outcome | Entry: CC(CC#N)c1ccc[nH]1 (stereo unspecified)
Result: inactive

Q: Field: outcome | Entry: CCN(CC)C(=S)S
Result: inactive

Q: Assay result, entry COCCCNCC(=O)N1CCN(C(=O)CNCCCOC)CC1 — outcome?
Result: inactive

Q: Record lookup: outcome of this test for Cc1ccccc1C(=O)c1ccccc1C(=O)c1ccccc1 ?
Result: inactive
